Molecular target: human NPSR-107I (Homo sapiens, UniProt Q6W5P4, N107I)
Construct: expressed in transfected cells
Sequence (Q6W5P4 whole entry N107I): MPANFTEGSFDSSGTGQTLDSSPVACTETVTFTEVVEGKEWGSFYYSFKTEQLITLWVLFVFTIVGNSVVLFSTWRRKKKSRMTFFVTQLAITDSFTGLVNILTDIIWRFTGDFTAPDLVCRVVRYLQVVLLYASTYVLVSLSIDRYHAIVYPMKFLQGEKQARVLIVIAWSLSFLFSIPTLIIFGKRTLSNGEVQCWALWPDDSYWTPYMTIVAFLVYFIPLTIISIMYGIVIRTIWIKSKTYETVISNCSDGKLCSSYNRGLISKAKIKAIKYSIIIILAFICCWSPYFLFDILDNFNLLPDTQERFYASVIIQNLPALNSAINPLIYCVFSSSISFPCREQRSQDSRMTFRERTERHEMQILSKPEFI
Assay: Ca+2 mobilization assay (apparent Ke against NPS)
Format: cell-based
Conditions: Calcium Mobilization, CHO-Gα16-hNPSR-107I cells, shift of NPS EC50
The following compounds are shown together with reported Kb values.
The response must be a number in nM with no trailing unit.

Below, each entry is followed by its recorded Kb result.
compound | readout_units | numeric_readout
O=C1OC(Cc2ccccc2)(c2ccccc2)C2=C1CCN(C(=O)NCc1ccccc1)C2 (stereo not shown) | nM | 606
CCCCNC(=O)N1CCC2=C(C1)C(CC(C)C)(c1ccccc1)OC2=O (stereo not shown) | nM | 238
CC(C)CC1(c2ccccc2OCc2ccccc2)OC(=O)C2=C1CN(C(=O)NCc1ccccc1)CC2 (stereo not shown) | nM | 572

Kb lookup needed for CC(C)CC1(c2cccc(Cl)c2)OC(=O)C2=C1CN(C(=O)NCc1ccccc1)CC2 (stereo not shown) , thanks.
136

====

Target: human NPSR-107I (Homo sapiens, UniProt Q6W5P4, N107I)
Construct: expressed in transfected cells
Test: Ca+2 mobilization assay (apparent Ke against NPS)
Format: cell-based
Conditions: Calcium Mobilization, CHO-Gα16-hNPSR-107I cells, shift of NPS EC50
Assign a class from recorded Kb; defined classes: low group = under 300 nM, middle group = from 300 nM up to 600 nM, high group = 600 nM and over

compound | answer_label
CC(C)(C)CC1(c2ccccc2)OC(=O)C2=C1CN(C(=O)NCc1ccccc1)CC2 (centres unmarked) [Compound 13] | low group
CC(C)CC1(CC(C)C)OC(=O)C2=C1CN(C(=O)NCc1ccccc1)CC2 [Compound 16] | high group
CCCCNC(=O)N1CC[C@H]2C(=O)OC(c3ccccc3)(c3ccccc3)[C@@H]2C1 [Compound 6] | low group

Which class is correct for the following compound? CC(C)CC1(c2ccccc2)OC(=O)C2=C1CN(C(=O)NCc1ccccc1)CC2 (centres unmarked) [Compound 14a]
middle group

Which class is correct for the following compound? O=C1OC(c2ccccc2)(c2ccccc2)C2=C1CCN(C(=O)NCc1ccccc1)C2 [Compound 1]
middle group

Which class is correct for the following compound? CC(C)CC1(c2ccccc2)OC(=O)C2=C1CN(C(=S)NCCN1CCCCC1)CC2 (centres unmarked) [Compound 28]
middle group

Which class is correct for the following compound? O=C1OC(c2ccccc2)(c2ccccc2)C2=C1CN(C(=O)NCc1ccccc1)CC2 [Compound 7]
high group

Which class is correct for the following compound? CC(C)CC1(c2ccccc2)OC(=O)C2=C1CN(C(=O)NCc1ccccc1)CC2 (single isomer, unassigned; (+)) [Compound 14b]
low group

Which class is correct for the following compound? CCCCC1(c2ccccc2)OC(=O)C2=C1CN(C(=O)NCc1ccccc1)CC2 (centres unmarked) [Compound 11]
low group

Which class is correct for the following compound? CC(C)CC1(c2ccccc2O)OC(=O)C2=C1CN(C(=O)NCc1ccccc1)CC2 (centres unmarked) [Compound 23]
high group

Which class is correct for the following compound? CC(C)CC1(c2ccccc2)OC(=O)C2=C1CN(C(=O)NCCN1CCCCC1)CC2 (centres unmarked) [Compound 27]
middle group

====

Test: Pharmacokinetic study in C57Bl6 mice
Assay type: in vivo, C57/Bl6 mice
Details: mouse, ip, 30 mg/kg i.p., brain, read-out: Cmax in brain
measurement_type: Cmax (ng/mL)
The response must be a number in ng/mL with no trailing unit.

Cmax lookup needed for CC(C)CC1(c2ccccc2)OC(=O)C2=C1CN(C(=O)NCc1ccccc1)CC2 (single isomer, unassigned; (+)) [Compound 14b] , thanks.
186

====

Target: human NPSR-107I (Homo sapiens, UniProt Q6W5P4, N107I)
Construct: expressed in transfected cells
Assay: Ca+2 mobilization assay (apparent Ke against NPS)
Assay type: cell-based
Conditions: calcium mobilization, SAR discussion
measurement_type: NPSR antagonist activity in words

molecule | measurement_type | result
CC(C)CC1(c2ccccc2)OC(=O)C2=C1CN(C(=S)NCCN1CCCCC1)CC2 (stereo not shown) | NPSR antagonist activity in words | reduction in potency
CCCCNC(=O)N1CCC2=C(C1)C(CC(C)C)(c1ccccc1)OC2=O (stereo not shown) | NPSR antagonist activity in words | reduction in potency
CC(C)CC1(c2ccccc2)OC(=O)C2=C1CN(C(=O)NCCN1CCCCC1)CC2 (stereo not shown) | NPSR antagonist activity in words | reduction in potency

====

Biological target: human NPSR-107I (Homo sapiens, UniProt Q6W5P4, N107I)
Construct: expressed in transfected cells
Test: Ca+2 mobilization assay (apparent Ke against NPS)
Format: cell-based
Conditions: Calcium Mobilization, CHO-Gα16-hNPSR-107I cells, shift of NPS EC50
The following compounds are shown together with reported Kb values.
The response must be a number in µM with no trailing unit.

Below, each entry is followed by its recorded Kb result.
compound | Kb / µM
O=C1OC(c2ccccc2)(c2ccccc2)[C@@H]2CN(C(=O)NCc3ccccc3)CC[C@@H]12 | 0.17
O=C1OC2(C3=C1CCN(C(=O)NCc1ccccc1)C3)c1ccccc1CCc1ccccc12 | 1.66

Kb lookup needed for O=C1OC(c2ccccc2)(c2ccccc2)[C@H]2CN(C(=O)NCc3ccccc3)CC[C@@H]12 , thanks.
0.761

Kb lookup needed for CC(C)CC1(c2ccc3ccccc3c2)OC(=O)C2=C1CN(C(=O)NCc1ccccc1)CC2 (stereo not drawn) , thanks.
0.5

Kb lookup needed for CC(C)CC1(c2ccccc2)OC(=O)C2=C1CN(C(=O)NCc1ccccc1)CC2 (stereo not drawn) [Compound 14] , thanks.
0.118

Kb lookup needed for CCCCNC(=O)N1CCC2=C(C1)C(c1ccccc1)(c1ccccc1)OC2=O , thanks.
0.515
